# Tested on: T cell lines against natural epitope SSX-241-49
# Assay explanation: Cross-reactivity and functional avidity: IFN-gamma production by T cell lines raised against natural SSX-2 41-49;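 further: analogs presented ex vivo by competent APCs to T cells specific for the non-mutated epitope, scored by lowest activating concentration, peak cytokine effect and concentration at that peak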
# Format: cell-based, HHD transgenic mice
# Cond: T cells raised to native peptide tested on analogs; footnote * and unit not given
Test readout: Cross-reactivity and fct avidity (native to analogs)*
Form: value (number only, do not type unit).

Query :: What Cross-reactivity and fct avidity (native to analogs)* value was documented for this compound, CC[C@H](C)[C@H](NC(=O)[C@H](CCCCN)NC(=O)[C@H](CCC(=O)O)NC(=O)[C@H](CO)NC(=O)[C@@H](NC(=O)[C@@H](N)Cc1ccccc1)C(C)C)C(=O)N[C@@H](Cc1ccccc1)C(=O)N[C@@H](Cc1ccc(O)cc1)C(=O)N[C@@H](C)C(=O)O [SSX2 41-49 (K41F, A42V, V49A)] ?
Result :: 1

Query :: Could you share which Cross-reactivity and fct avidity (native to analogs)* value was measured for CC[C@H](C)[C@H](NC(=O)[C@H](CCCCN)NC(=O)[C@H](CCC(=O)O)NC(=O)[C@H](CO)NC(=O)[C@H](CCSC)NC(=O)[C@@H](N)Cc1ccccc1)C(=O)N[C@@H](Cc1ccccc1)C(=O)N[C@@H](Cc1ccc(O)cc1)C(=O)N[C@H](C(=O)O)C(C)C [SSX2 41-49 (K41F, A42M)] ?
Result :: 3

Query :: Find the recorded Cross-reactivity and fct avidity (native to analogs)* belonging to CC[C@H](C)[C@H](NC(=O)[C@H](CCCCN)NC(=O)[C@H](CCC(=O)O)NC(=O)[C@H](CO)NC(=O)[C@@H](NC(=O)[C@@H](N)Cc1ccccc1)C(C)C)C(=O)N[C@@H](Cc1ccccc1)C(=O)N[C@@H](Cc1ccc(O)cc1)C(=O)N(C)[C@H](C(=O)O)C(C)C [SSX2 41-49 (K41F, A42V, V49MeVal)] and report it.
Result :: 10

* * *

# Tested target: HLA-A*0201 (Homo sapiens, UniProt P04439, D140Y/D185E/D98H/E176V/E277Q/G131W/G231S/I119V/I121R/I166T/I218V/L300P/L318F/N151K/N90K/P208A/P217A/Q86G/Q94H/R138H/R169H/T345S)
# Assay explanation: Peptide binding using T2 cells;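 further: Read-out is peptide-induced stabilization of HLA-A*0201 on the cell surface, reflecting mainly Kon at limiting peptide levels and both Kon and Koff at saturating levels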
# Cond: half maximal binding of wild-type peptide relative to analog
Ends that are not written are not given here.
Test readout: Relative affinity (1/RA)
Keep it simple and answer with nothing but the number.

Query :: # query: Relative affinity (1/RA) of entry FVSEKIFYV [SSX2 41-49 (K41F, A42V)]
Result :: 3.1

Query :: So what does the record say about Relative affinity (1/RA) for `FVSEKLFSA` ?
Result :: 2.4

Query :: Using the record for KLSEKIFYI [SSX2 41-49 (A42L, V49I)] , report its Relative affinity (1/RA).
Result :: 2.6

Query :: Return reported Relative affinity (1/RA); argument: FVSEKIFYM [SSX2 41-49 (K41F, A42V, V49M)]
Result :: 0.8

Query :: Entry under review: YLSEKIFYV-OH [SSX2 41-49 (K41Y, A42L)] . Reported Relative affinity (1/RA)?
Result :: 1.2

Query :: Relative affinity (1/RA) for YMSEKIFYV-OH [SSX2 41-49 (K41Y, A42M)] ?
Result :: 0.6

Query :: Entry FVSQKIFYV [SSX2 41-49 (K41F, A42V, E44Q)] : reported Relative affinity (1/RA) = ?
Result :: 0.4

Query :: Return reported Relative affinity (1/RA); argument: KASEKIFYI-OH [SSX2 41-49(V49I)]
Result :: 1.0

Query :: Form field: reported Relative affinity (1/RA) of FISEKIFYV [SSX2 41-49 (K41F, A42I)]
Result :: 2.7

Query :: State the recorded Relative affinity (1/RA) for this entry: KISEKIFYV [SSX2 41-49 (A42I)]
Result :: 1.7

Query :: Quick one: Relative affinity (1/RA) of FVSEKLFTV [SSX2 41-49 (K41F, A42V, I46L, Y48T)] ?
Result :: 2.6

Query :: For the substance KMSEKIFYV [SSX2 41-49 (A42M)] , what Relative affinity (1/RA) is on record?
Result :: 1.7
